tested on: NAD(P) synthesis from niacinamide in HepG2 cells; test: Determination of NAD(P) synthesis from [14C]niacinamide in HepG2 cells; type: cell-based, human; details: Table 3a, compound 10^-5 M, 17 hrs pre-incubation, control 302.1
// boundary case: NAD(P) pmol/10^6 cells equal to 3 pmol/10^6 cells maps to NOT MET; strictly smaller maps to MET

# molecule, discrete.label
rows = [
    ("O=C(NCCCCC1CCN(C(=O)N2c3ccccc3CCc3ccccc32)CC1)Nc1cccnc1", "MET"),
    ("S=C(NCCCCC=C(c1ccccc1)c1ccccc1)N/N=C/c1cccnc1", "MET"),
    ("O=C(CCCCCN1CCN(C(c2ccccc2)c2ccccc2)CC1)NCCc1cccnc1", "NOT MET"),
    ("NC(Cc1ccc(O)c(N=Nc2ccccc2C(=O)N2CCC(CCCCNC(=O)/C=C/c3cccnc3)CC2)c1)C(=O)O (centres unmarked) [Compound K22408, trihydrate]", "NOT MET"),
    ("S=C(NCCCCCC1CCN(C(c2ccccc2)c2ccccc2)CC1)Nc1cccnc1", "NOT MET"),
    ("Cn1c(CCNC(=O)/C=C/c2cccnc2)ccc1CN1CCN(C(c2ccccc2)c2ccccc2)CC1", "MET"),
    ("O=C(NCCCCCCNC(=O)N1CCN(C(c2ccccc2)c2ccccc2)CC1)NCc1cccnc1", "NOT MET"),
    ("O=C(NCCCCC1CCN(C(c2ccccc2)c2ccccc2)CC1)NCCc1cccnc1", "MET"),
]

====

biological target: niacinamide phosphoribosyltransferase (NAPRT, EC 2.4.2.12) (Homo sapiens, UniProt P43490); construct: protamine-treated cytoplasmic fraction of K-562 cells as the enzyme source; endogenous in cells; host or cells: K-562 (ATCC CCL 243), freeze-thaw lysate, 23,000 x g supernatant treated with protamine sulfate; experiment: Niacinamide phosphoribosyltransferase (NAPRT) assay, protamine-treated cytoplasmic fraction of K-562 cells; type: biochemical; conditions: compound 10 μM; portion of total radioactivity; controls 83.12 and 84.68
Sequence (P43490 whole entry): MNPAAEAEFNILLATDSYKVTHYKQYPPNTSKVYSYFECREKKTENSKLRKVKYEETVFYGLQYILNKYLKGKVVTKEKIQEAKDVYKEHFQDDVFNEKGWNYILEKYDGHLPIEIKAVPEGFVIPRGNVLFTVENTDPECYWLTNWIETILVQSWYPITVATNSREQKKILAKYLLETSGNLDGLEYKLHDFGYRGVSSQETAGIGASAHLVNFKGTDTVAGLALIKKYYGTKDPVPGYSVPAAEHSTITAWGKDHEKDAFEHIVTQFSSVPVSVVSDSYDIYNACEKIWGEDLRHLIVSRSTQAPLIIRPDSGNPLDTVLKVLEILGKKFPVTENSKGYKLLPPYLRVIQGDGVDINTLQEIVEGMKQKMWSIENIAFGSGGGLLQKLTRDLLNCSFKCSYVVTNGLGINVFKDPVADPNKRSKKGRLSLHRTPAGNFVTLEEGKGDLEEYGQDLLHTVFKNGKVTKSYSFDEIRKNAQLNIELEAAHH
# NA [%] annotations
outcome.measure: NA [%]

# molecule, measured.result
data = [
    ("O=C(NCCCCC1CCN(S(=O)(=O)c2ccc3ccccc3c2)CC1)Nc1cccnc1", "100.00%"),
    ("O=C(NCCCCCCNC(=O)NCc1cccnc1)NCCC(c1ccccc1)c1ccccc1", "100.00%"),
    ("O=C(CCc1cccnc1)NCCCCC1CCN(CCCCC2CCN(C(c3ccccc3)c3ccccc3)CC2)CC1", "100.00%"),
    ("Cn1c(CCNC(=O)/C=C/c2cccnc2)ccc1CN1CCN(C(c2ccccc2)c2ccccc2)CC1", "100.00%"),
    ("NC(Cc1ccc(O)c(N=Nc2ccccc2C(=O)N2CCC(CCCCNC(=O)/C=C/c3cccnc3)CC2)c1)C(=O)O (centres unmarked) [Compound K22408, trihydrate]", "100.00%"),
]

====

# minimal effective concentration annotations
test system: HepG2 cells; assay: Cell growth under high-density conditions (SRB assay), delayed cell death (DCD); format: cell-based, human; conditions: Homo sapiens; Table 5; high density HepG2 cultures

# molecule, assay.target, minimal effective concentration / µM
records = [
    ("Cn1c(CCNC(=O)/C=C/c2cccnc2)ccc1CN1CCN(C(c2ccccc2)c2ccccc2)CC1 [Compound K22350]", "HepG2 cells", 1),
    ("NC(Cc1ccc(O)c(N=Nc2ccccc2C(=O)N2CCC(CCCCNC(=O)/C=C/c3cccnc3)CC2)c1)C(=O)O (stereo not shown) [Compound K22408, trihydrate]", "HepG2 cells", 1),
    ("O=C(NCCCCC1CCN(C(c2ccccc2)c2ccccc2)CC1)NCCc1cccnc1 [Compound K22339]", "HepG2 cells", 0.1),
    ("O=C(CCc1cccnc1)NCCCCC1CCN(CCCCC2CCN(C(c3ccccc3)c3ccccc3)CC2)CC1 [Compound K22316]", "HepG2 cells", 1),
]
